target: UniProtKB Q06187; experiment: Degradation of BTK protein in Namalwa cells (Western blot; DC50, Dmax); conditions: read-out: DC50 (BTK degradation); concentration giving 50% reduction of BTK expression level; cell line not given
property name: DC50

compound	tested system	DC50
Nc1ncnc2c1c(-c1ccc(Oc3ccccc3)cc1)nn2C1CCN(C[C@@H]2CCN(CC3CN(c4ccc5c(c4)C(=O)N(C4CCC(=O)NC4=O)C5=O)C3)C2)CC1 (some centres unmarked) [Compound 423b]	UniProtKB Q06187	10 to 50 nM
Nc1ncnc2c1c(-c1ccc(Oc3ccccc3)cc1)nn2C1CCN(CCCN2CCC(CN3CCN(c4ccc(NC5CCC(=O)NC5=O)cc4)CC3)CC2)CC1 (centres unmarked)	UniProtKB Q06187	< 10 nM
NC(=O)c1c(-c2ccc(Oc3ccccc3)cc2)nn2c1NCC[C@H]2C1CCN(C2CCN(C(=O)N3CCC(CN4CCC(c5ccc6c(c5)C(=O)N(C5CCC(=O)NC5=O)C6=O)CC4)CC3)CC2)CC1 (some centres unmarked)	UniProtKB Q06187	10 to 50 nM

Query: Consider the compound shown here: Nc1ncnc2c1c(-c1ccc(Oc3ccccc3)cc1)nn2C1CCN(CCN2CCC(N3CCN(c4ccc5c(c4)CN(C4CCC(=O)NC4=O)C5=O)CC3)CC2)CC1 (centres unmarked) What is its recorded DC50?
Result: > 50 nM

Query: Consider the compound shown here: NC(=O)c1c(-c2ccc(Oc3ccccc3)cc2)nn2c1NCC[C@H]2C1CCN(CC2CCN(C(=O)N3CCN(c4ccc5c(c4)CN(C4CCC(=O)NC4=O)C5=O)CC3)CC2)CC1 (some centres unmarked) What is its recorded DC50?
Result: > 50 nM

---

target: BTK (Homo sapiens); assay: Degradation of BTK protein in Namalwa cells (Western blot; DC50, Dmax)
Listed molecules paired with reported Dmax

molecule	tested system	Dmax
NC(=O)c1c(-c2ccc(Oc3ccccc3)cc2)nn2c1NCCC2C1CCN(C(=O)N2CCC(CN3CCC(c4ccc5c(c4)C(=O)N(C4CCC(=O)NC4=O)C5=O)CC3)CC2)CC1 (centres unmarked)	BTK (Homo sapiens)	> 90%
NC(=O)c1c(-c2ccc(Oc3ccccc3)cc2)nn2c1NCCC2C1CCN(C(=O)N2CCN(CCN3CCC(c4ccc5c(c4)CN(C4CCC(=O)NC4=O)C5=O)CC3)CC2)CC1 (centres unmarked)	BTK (Homo sapiens)	> 75%
NC(=O)c1c(-c2ccc(Oc3ccccc3)cc2)nn2c1NCCC2C1CCN(CC2CCN(C(=O)N3CCC(CC4CCN(c5ccc6c(c5)CN(C5CCC(=O)NC5=O)C6=O)CC4)CC3)CC2)CC1 (centres unmarked)	BTK (Homo sapiens)	> 75%
Nc1ncnc2c1c(-c1ccc(Oc3ccccc3)cc1)nn2C1CCN(C2CCN(C(=O)N3CCN(CCCC4CCN(c5ccc6c(c5)CN(C5CCC(=O)NC5=O)C6=O)CC4)CC3)CC2)CC1 (centres unmarked)	BTK (Homo sapiens)	> 75%
Nc1ncnc2c1c(-c1ccc(Oc3ccccc3)cc1)nn2C1CCN(C2CCN(C(=O)N3CCN(CCCN4CCC(c5ccc6c(c5)CN(C5CCC(=O)NC5=O)C6=O)CC4)CC3)CC2)CC1 (centres unmarked)	BTK (Homo sapiens)	> 75%
NC(=O)c1c(-c2ccc(Oc3ccccc3)cc2)nn2c1NCCC2C1CCN(C2CCN(C(=O)N3CCN(CC4CCN(c5ccc6c(c5)C(=O)N(C5CCC(=O)NC5=O)C6=O)CC4)CC3)CC2)CC1 (centres unmarked)	BTK (Homo sapiens)	> 90%
NC(=O)c1c(-c2ccc(Oc3ccccc3)cc2)nn2c1NCC[C@H]2C1CCN(C2CCN(CC3CCN(c4ccc5c(c4)C(=O)N(C4CCC(=O)NC4=O)C5=O)CC3)CC2)CC1 (some centres unmarked)	BTK (Homo sapiens)	> 75%
NC(=O)c1c(-c2ccc(Oc3ccccc3)cc2)nn2c1NCC[C@H]2C1CCN(C2CCN(C(=O)N3CCC(N4CCN(c5ccc6c(c5)C(=O)N(C5CCC(=O)NC5=O)C6=O)CC4)CC3)CC2)CC1 (some centres unmarked)	BTK (Homo sapiens)	> 90%

Query: Param readout = Dmax; param system = BTK (Homo sapiens); param query = Nc1ncnc2c1c(-c1ccc(Oc3ccccc3)cc1)nn2C1CCN(C2CCN(CCCN3CCC(c4ccc5c(c4)C(=O)N(C4CCC(=O)NC4=O)C5=O)CC3)CC2)CC1 (centres unmarked) ; response: value
Result: > 75%

Query: Param readout = Dmax; param system = BTK (Homo sapiens); param query = Nc1ncnc2c1c(-c1ccc(Oc3ccccc3)cc1)nn2C1CCN(C2CCN(C(=O)N3CCN(CCN4CCN(c5ccc6c(c5)CN(C5CCC(=O)NC5=O)C6=O)CC4)CC3)CC2)CC1 (centres unmarked) ; response: value
Result: > 75%

Query: Param readout = Dmax; param system = BTK (Homo sapiens); param query = Nc1ncnc2c1c(-c1ccc(Oc3ccccc3)cc1)nn2C1CCN(C2CCN(CCN3CCC(c4ccc5c(c4)CN(C4CCC(=O)NC4=O)C5=O)CC3)CC2)CC1 (centres unmarked) ; response: value
Result: > 75%

Query: Param readout = Dmax; param system = BTK (Homo sapiens); param query = NC(=O)c1c(-c2ccc(Oc3ccccc3)cc2)nn2c1NCC[C@H]2C1CCN(C(=O)N2CCN(CCN3CCC(c4ccc5c(c4)C(=O)N(C4CCC(=O)NC4=O)C5=O)CC3)CC2)CC1 (some centres unmarked) ; response: value
Result: > 75%

Query: Param readout = Dmax; param system = BTK (Homo sapiens); param query = Nc1ncnc2c1c(-c1ccc(Oc3ccccc3)cc1)nn2C1CCN(C2CCN(C(=O)N3CCN(CC4CCN(c5ccc6c(c5)CN(C5CCC(=O)NC5=O)C6=O)CC4)CC3)CC2)CC1 (centres unmarked) ; response: value
Result: > 90%

Query: Param readout = Dmax; param system = BTK (Homo sapiens); param query = NC(=O)c1c(-c2ccc(Oc3ccccc3)cc2)nn2c1NCCC2C1CCN(CC2CCN(C(=O)N3CCC(C4CCN(c5ccc6c(c5)CN(C5CCC(=O)NC5=O)C6=O)CC4)CC3)CC2)CC1 (centres unmarked) ; response: value
Result: > 90%

---

biological target: BTK (Homo sapiens, UniProt Q06187); assay: BTK degradation, DC50 and Dmax of Table 1 (cell line not given); format: cell-based; design: endogenous in cells; conditions: concentration giving 50% reduction of BTK expression level
Sequence (Q06187 whole entry): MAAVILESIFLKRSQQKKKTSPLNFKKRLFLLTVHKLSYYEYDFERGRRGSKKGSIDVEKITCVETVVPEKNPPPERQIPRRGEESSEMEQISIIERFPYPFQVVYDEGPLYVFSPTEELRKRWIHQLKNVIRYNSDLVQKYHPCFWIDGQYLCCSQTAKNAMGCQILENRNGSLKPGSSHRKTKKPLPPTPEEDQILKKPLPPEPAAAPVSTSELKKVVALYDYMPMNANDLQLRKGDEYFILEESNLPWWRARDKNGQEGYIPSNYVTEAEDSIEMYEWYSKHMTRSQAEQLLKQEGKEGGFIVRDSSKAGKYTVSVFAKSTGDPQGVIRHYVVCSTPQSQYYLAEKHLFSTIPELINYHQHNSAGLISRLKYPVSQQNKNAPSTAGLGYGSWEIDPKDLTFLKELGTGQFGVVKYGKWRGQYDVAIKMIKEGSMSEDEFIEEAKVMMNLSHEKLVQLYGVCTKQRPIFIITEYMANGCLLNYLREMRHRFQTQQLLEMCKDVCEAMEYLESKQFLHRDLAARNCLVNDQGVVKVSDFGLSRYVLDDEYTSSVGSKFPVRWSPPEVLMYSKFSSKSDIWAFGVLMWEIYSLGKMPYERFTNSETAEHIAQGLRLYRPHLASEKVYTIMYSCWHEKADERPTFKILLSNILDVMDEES
property name: DC50

Solved entries (count: 8):
compound	result
Nc1ncnc2c1c(-c1ccc(Oc3ccccc3)cc1)nn2[C@@H]1CCCN(CC2CCN(CCN3CCN(c4ccc5c(c4)C(=O)N(C4CCC(=O)NC4=O)C5=O)CC3)CC2)C1 (stereo partly shown) [Compound 133]	10 to 50 nM
Nc1ncnc2c1c(-c1ccc(Oc3ccccc3)cc1)nn2[C@@H]1CCCN(C(=O)N2CCC(CN3CCN(c4ccc5c(c4)C(=O)N(C4CCC(=O)NC4=O)C5=O)CC3)CC2)C1 (stereo partly shown) [Compound 55]	10 to 50 nM
Nc1ncnc2c1c(-c1ccc(Oc3ccccc3)cc1)nn2[C@@H]1CCCN(CC2CCN(CCCN3CCN(c4ccc5c(c4)C(=O)N(C4CCC(=O)NC4=O)C5=O)CC3)CC2)C1 (stereo partly shown) [Compound 137]	10 to 50 nM
Nc1ncnc2c1c(-c1ccc(Oc3ccccc3)cc1)nn2C1CCN(C(=O)N2CCC(CN3CCN(c4ccc5c(c4)C(=O)N(C4CCC(=O)NC4=O)C5=O)CC3)CC2)CC1 (stereo not shown) [Compound 85]	< 10 nM
Nc1ncnc2c1c(-c1ccc(Oc3ccccc3)cc1)nn2[C@@H]1CCCN(C(=O)N2CCN(CCN3CCC(c4ccc5c(c4)C(=O)N(C4CCC(=O)NC4=O)C5=O)CC3)CC2)C1 (stereo partly shown) [Compound 69]	< 10 nM
Nc1ncnc2c1c(-c1ccc(Oc3ccccc3)cc1)nn2[C@@H]1CCCN(C(=O)N2CCC(CCCC3CCN(c4ccc5c(c4)C(=O)N(C4CCC(=O)NC4=O)C5=O)CC3)CC2)C1 (stereo partly shown) [Compound 113]	> 50 nM
Nc1ncnc2c1c(-c1ccc(Oc3ccccc3)cc1)nn2[C@@H]1CCCN(C2CCN(C(=O)N3CCN(CCN4CCC(c5ccc6c(c5)CN(C5CCC(=O)NC5=O)C6=O)CC4)CC3)CC2)C1 (stereo partly shown) [Compound 180]	10 to 50 nM
Nc1ncnc2c1c(-c1ccc(Oc3ccccc3)cc1)nn2C1CCN(C(=O)N2CCN(c3ccc4c(c3)CN(C3CCC(=O)NC3=O)C4=O)CC2)CC1 (stereo not shown) [Compound 76]	> 50 nM

Query: Consider the compound shown here: Nc1ncnc2c1c(-c1ccc(Oc3ccccc3)cc1)nn2[C@@H]1CCCN(C2CCN(C(=O)N3CCC(c4ccc5c(c4)C(=O)N(C4CCC(=O)NC4=O)C5=O)CC3)CC2)C1 (stereo partly shown) [Compound 157] What is its recorded DC50?
Result: > 50 nM

Query: Consider the compound shown here: Nc1ncnc2c1c(-c1ccc(Oc3ccccc3)cc1)nn2[C@@H]1CCCN(CC2CCN(C(=O)N3CCC(CCN4CCN(c5ccc6c(c5)C(=O)N(C5CCC(=O)NC5=O)C6=O)CC4)CC3)CC2)C1 (stereo partly shown) [Compound 33] What is its recorded DC50?
Result: > 50 nM

These measurements were taken from patent US12139492B2.
